Target: Human factor Xa (Homo sapiens)
Construct: leads from XII to XIIa to XIa to IXa and to the conversion of X to Xa; purchased Enzyme Research Laboratories, South Bend IN
Sequence (P00742 235-488 limits assumed): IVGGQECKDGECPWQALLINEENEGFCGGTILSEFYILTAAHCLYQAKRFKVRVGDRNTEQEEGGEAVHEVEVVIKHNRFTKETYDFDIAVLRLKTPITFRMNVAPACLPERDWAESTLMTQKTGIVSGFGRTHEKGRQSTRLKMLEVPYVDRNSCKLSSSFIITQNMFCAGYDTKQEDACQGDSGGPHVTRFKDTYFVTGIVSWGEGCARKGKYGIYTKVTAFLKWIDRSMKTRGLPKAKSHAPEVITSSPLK
Sequence (P00742 41-179 limits assumed): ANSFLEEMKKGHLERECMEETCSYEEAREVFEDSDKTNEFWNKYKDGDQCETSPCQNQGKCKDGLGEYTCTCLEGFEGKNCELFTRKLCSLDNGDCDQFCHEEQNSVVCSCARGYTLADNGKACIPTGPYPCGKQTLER
Experiment: Xa Assay
Assay type: biochemical
Conditions: % inhibition at 30 µM (cells with % or %@30, bare 0)
Please go through the items and note down their IC50 or % Inhibition Factor Xa (30 µM).
Quick note: give the figure in %, leave out the unit.

Field request: IC50 or % Inhibition Factor Xa (30 µM) | item: N=C(N)c1ccc(CNC(=O)Cn2c(-c3ccccc3)c(Cl)nc(NCc3ccncc3)c2=O)cc1 [1471-11]
9

// lookup IC50 or % Inhibition Factor Xa (30 µM) for C[C@@H](C(=O)NCc1ccc(C(=N)N)cc1)n1c(-c2ccccc2)c(Cl)nc(NCCc2ccccc2)c1=O [1517-15]
0

Quick one: IC50 or % Inhibition Factor Xa (30 µM) of N=C(N)c1ccc(CNC(=O)Cn2c(-c3ccccc3O)c(Cl)nc(NC3CCC3)c2=O)cc1 [Example 66] ?
0

Request the reported IC50 or % Inhibition Factor Xa (30 µM) associated with CC(C)Nc1ncc(-c2cccc(N)c2)n(CC(=O)NCc2ccc(C(=N)N)c(F)c2)c1=O [Example 43]
0

Field request: IC50 or % Inhibition Factor Xa (30 µM) | item: CCc1c(Cl)nc(NCCc2ccccc2)c(=O)n1CC(=O)NCc1ccc(C(=N)N)cc1 [1471-63]
2

So what does the record say about IC50 or % Inhibition Factor Xa (30 µM) for N=C(N)c1ccc(CNC(=O)Cn2c(-c3ccccc3)c(Cl)nc(NCCc3ccccn3)c2=O)cc1 [1512-47] ?
13

Could you tell me which IC50 or % Inhibition Factor Xa (30 µM) is on file for N=C(N)c1ccc(CNC(=O)Cn2c(-c3ccccc3)c(Cl)nc(NCc3ccccn3)c2=O)cc1 [1507-24] ?
15

Given CC(C)CCNc1nc(Cl)c(-c2ccccc2)n(CC(=O)NCc2ccc(C(=N)N)cc2)c1=O [1517-40] , state its recorded IC50 or % Inhibition Factor Xa (30 µM).
0

Give the measured IC50 or % Inhibition Factor Xa (30 µM) of CCc1c(Cl)nc(NCCN2CCOCC2)c(=O)n1CC(=O)NCc1ccc(C(=N)N)cc1 [1471-60] .
0

Could you share which IC50 or % Inhibition Factor Xa (30 µM) value was measured for N=C(N)c1ccc(CNC(=O)Cn2c(-c3ccccc3)c(Cl)nc(NC3CCC3)c2=O)cc1 [1507-21] ?
23

Which IC50 or % Inhibition Factor Xa (30 µM) value belongs to C[C@H](C(=O)NCc1ccc(C(=N)N)cc1)n1c(-c2ccccc2)c(Cl)nc(NC2CCC2)c1=O [1517-11] ?
0

Please look up its IC50 or % Inhibition Factor Xa (30 µM): N=C(N)c1ccc(CNC(=O)Cn2c(-c3ccccc3)c(Cl)nc(NCC(c3ccccc3)c3ccccc3)c2=O)cc1 [1507-09]
13

Entry Cc1c(Cl)nc(NCCc2cccnc2)c(=O)n1CC(=O)NCc1ccc(C(=N)N)cc1 [1471-8] has what IC50 or % Inhibition Factor Xa (30 µM)?
27

Fill in the blank: the reported IC50 or % Inhibition Factor Xa (30 µM) of CCCCNc1nc(Cl)c(-c2ccccc2)n(CC(=O)NCc2ccc(C(=N)N)cc2)c1=O [1517-35] is ____.
0

Report IC50 or % Inhibition Factor Xa (30 µM) for N=C(N)c1ccc(CNC(=O)Cn2c(-c3ccc4c(c3)OCO4)c(Cl)nc(NCc3ccccc3)c2=O)cc1 [1471-41] please.
34

Look up IC50 or % Inhibition Factor Xa (30 µM): CC(=O)Nc1cccc(-c2c(Cl)nc(NC(C)C)c(=O)n2CC(=O)NCCc2ccc(C(=N)N)cc2)c1 [Example 68]
6
